The reported measurements were obtained from patent US20220370416A1.

biological target: HiBit-KRAS^G12C (Homo sapiens, UniProt P01116, G12C); assay: HiBit degradation assay in SW1573 HiBit-KRas^G12C cells; assay type: cell-based; set-up: expressed in transfected cells; host or cells: SW1573 (clone E6), modified pcDNA3.1 vector, TK promoter; conditions: SW1573, read-out: KRas^G12C-HiBit (SW1573; 0.1% DMSO) Dmax**, SW1573 HiBit-KRas^G12C, 0.1% DMSO, 24 hours
Sequence (P01116 1-186 isoform P01116-2 G12C limits assumed): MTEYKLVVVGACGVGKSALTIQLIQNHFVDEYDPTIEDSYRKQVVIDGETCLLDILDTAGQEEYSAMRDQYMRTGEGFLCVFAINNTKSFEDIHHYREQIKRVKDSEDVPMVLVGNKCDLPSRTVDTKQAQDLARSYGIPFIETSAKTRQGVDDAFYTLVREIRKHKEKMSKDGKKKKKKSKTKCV
readout type: Dmax

compound structure	target of assay	Dmax
C=CC(=O)N1CCN(c2nc(O[C@H]3CCC[C@@H]3N3CCC(COCC(=O)N[C@H](C(=O)N4C[C@H](O)C[C@H]4C(=O)N[C@@H](C)c4ccc(-c5scnc5C)cc4)C(C)(C)C)CC3)nc3c(F)c(-c4cc(O)cc5ccccc45)c(Cl)cc23)CC1	HiBit-KRAS^G12C (Homo sapiens, UniProt P01116, G12C)	35 to 70%

Now look at this entry.
The reported value for C=CC(=O)N1CCN(c2nc(O[C@H](C)CN3CCC(CCCOC4CN(CC(=O)N[C@H](C(=O)N5C[C@H](O)C[C@H]5C(=O)N[C@@H](C)c5ccc(-c6scnc6C)cc5)C(C)(C)C)C4)CC3)nc3c(F)c(-c4cc(O)cc5ccccc45)c(Cl)cc23)CC1 in terms of Dmax is < 35%

----------
# maps each entry to its Dmax
Molecular target: HiBit-KRAS^G12C (Homo sapiens, UniProt P01116, G12C)
Assay: HiBit degradation assay in MiaPaCa-2 HiBit-KRas^G12C cells
Format: cell-based
Details: MIA PaCa-2, MiaPaCa-2 HiBit-KRas^G12C cells; 0.5% DMSO; 24 hours; maximum degradation; read-out: KRas^G12C-HiBiT (MiaPaCa; 0.5% DMSO) DMax
Experimental: Reagents. SW1573 (CRL-2170) and MiaPaCa-2 (CRL-1420) cells were purchased from ATCC. Both cell lines are […] for the G12C mutation in KRAS. […] Either SW1573 HiBit-KRas^G12C or MiaPaCa-2 HiBit-KRas^G12C cells were plated at 9000 cells/well in a 384 well plate (Corning #3770). […] Plates were then allowed to equilibrate to room temperature and fluorescence was measured using a Perkin-Elmer EnVision. […]

The following molecules have reported results that may help.
molecule	Dmax
C=CC(=O)N1CCN(c2nc(OCCN3CCC(COc4cc([C@@H](C(=O)N5C[C@H](O)C[C@H]5C(=O)N[C@@H](C)c5ccc(-c6scnc6C)cc5)C(C)C)on4)CC3)nc3c(F)c(-c4cc(O)cc5ccccc45)c(Cl)cc23)C[C@@H]1CC#N (atropisomer, axis not shown)	< 35%
C=C(F)C(=O)N1CCN(c2nc(OCCN3CCC(COCC(=O)N[C@H](C(=O)N4C[C@H](O)C[C@H]4C(=O)N[C@@H](C)c4ccc(-c5scnc5C)cc4)C(C)(C)C)CC3)nc3c(F)c(-c4cc(O)cc5ccccc45)c(Cl)cc23)C[C@@H]1CC#N (atropisomer, axis not shown)	> 70%
C=CC(=O)N1CCN(c2nc(OCCN3CCC(F)(COc4cc([C@H](C(=O)N5C[C@H](O)C[C@H]5C(=O)N[C@@H](C)c5ccc(-c6scnc6C)cc5)C(C)C)on4)CC3)nc3c(F)c(-c4cc(O)cc5ccccc45)c(Cl)cc23)C[C@@H]1CC#N	> 70%
C=C(F)C(=O)N1CCN(c2nc(OCCN3CCC(C)(COc4cc([C@H](C(=O)N5C[C@H](O)C[C@H]5C(=O)N[C@@H](C)c5ccc(-c6ccnn6C)cc5)C(C)C)on4)CC3)nc3c(F)c(-c4cc(O)cc5ccccc45)c(Cl)cc23)C[C@@H]1CC#N (atropisomer, axis not shown)	35 to 70%
C=CC(=O)N1CCN(c2nc(OCCN3CCC(COc4cc([C@H](C(=O)N5C[C@H](O)C[C@H]5C(=O)N[C@@H](C)c5ccc(-c6scnc6C)cc5)C(C)C)on4)CC3)nc3c(F)c(-c4cc(O)cc5ccccc45)c(Cl)cc23)CC1 (atropisomer, axis not shown)	35 to 70%
C=CC(=O)N1CCN(c2nc(O[C@H]3CCC[C@@H]3N3CCC(COCC(=O)N[C@H](C(=O)N4C[C@H](O)C[C@H]4C(=O)N[C@@H](C)c4ccc(-c5scnc5C)cc4)C(C)(C)C)CC3)nc3c(F)c(-c4cc(O)cc5ccccc45)c(Cl)cc23)C[C@@H]1CC#N	35 to 70%

Now look at this entry.
The reported value for C=CC(=O)N1CCN(c2nc(OCCN3CCC(COCC(=O)N[C@H](C(=O)N4C[C@H](O)C[C@H]4C(=O)N[C@@H](C)c4ccc(-c5ccnn5C)cc4)C(C)(C)C)CC3)nc3c(F)c(-c4cc(O)cc5ccccc45)c(Cl)cc23)C[C@@H]1CC#N (atropisomer, axis not shown) in terms of Dmax is > 70%

----------
target: HiBit-KRAS^G12C (Homo sapiens, UniProt P01116, G12C); assay: HiBit degradation assay in SW1573 HiBit-KRas^G12C cells; format: cell-based; design: expressed in transfected cells; host or cells: SW1573 (clone E6), modified pcDNA3.1 vector, TK promoter; settings: SW1573 HiBit-KRas^G12C, 0.1% DMSO, 24 hours; read-out: KRas^G12C-HIBit (SW1573; 0.1% DMSO) DC50*
readout type: DC50

The following molecules have reported results that may help.
molecule	DC50
C=CC(=O)N1CCN(c2nc(O[C@H](C)CN3CCC(OCCOC4CN(CC(=O)N[C@H](C(=O)N5C[C@H](O)C[C@H]5C(=O)N[C@@H](C)c5ccc(-c6scnc6C)cc5)C(C)(C)C)C4)CC3)nc3c(F)c(-c4cc(O)cc5ccccc45)c(Cl)cc23)CC1	0.1 to 1 µM
C=CC(=O)N1CCN(c2nc(OCCN3CCN(CCOCC(=O)N[C@H](C(=O)N4C[C@H](O)C[C@H]4C(=O)N[C@@H](C)c4ccc(-c5scnc5C)cc4)C(C)(C)C)CC3)nc3c(F)c(-c4cc(O)cc5ccccc45)c(Cl)cc23)CC1	> 1 µM
C=CC(=O)N1CCN(c2nc(O[C@H](C)CN3CCC(C(=O)N[C@H](C(=O)N4C[C@H](O)C[C@H]4C(=O)N[C@@H](C)c4ccc(-c5scnc5C)cc4)C(C)(C)C)CC3)nc3c(F)c(-c4cc(O)cc5ccccc45)c(Cl)cc23)CC1	0.1 to 1 µM
C=CC(=O)N1CCN(c2nc(O[C@H](C)CN3CCC(CC(=O)N[C@H](C(=O)N4C[C@H](O)C[C@H]4C(=O)N[C@@H](C)c4ccc(-c5scnc5C)cc4)C(C)(C)C)CC3)nc3c(F)c(-c4cc(O)cc5ccccc45)c(Cl)cc23)CC1	> 1 µM
C=CC(=O)N1CCN(c2nc(O[C@H](C)CN3CCC(OCCOCCOCCOCCOCCOCCOCCOCCOCC(=O)N[C@H](C(=O)N4C[C@H](O)C[C@H]4C(=O)N[C@@H](C)c4ccc(-c5scnc5C)cc4)C(C)(C)C)CC3)nc3c(F)c(-c4cc(O)cc5ccccc45)c(Cl)cc23)CC1	> 1 µM

Now look at this entry.
The reported value for C=CC(=O)N1CCN(c2nc(OC[C@@H]3C[C@@H](OCCOc4cc(-c5scnc5C)ccc4CNC(=O)[C@@H]4C[C@@H](O)CN4C(=O)[C@H](c4cc(C)no4)C(C)C)CN3C)nc3c2CCN(c2cccc4ccccc24)C3)C[C@@H]1CC#N in terms of DC50 is 0.1 to 1 µM

----------
Molecular target: HiBit-KRAS^G12C (Homo sapiens, UniProt P01116, G12C)
Test: HiBit degradation assay in SW1573 HiBit-KRas^G12C cells
Assay type: cell-based
Design: expressed in transfected cells; host or cells: SW1573 (clone E6), modified pcDNA3.1 vector, TK promoter
Conditions: read-out: KRas^G12C-HiBiT (SW1573; 0.5% DMSO) IC50***; SW1573 HiBit-KRas^G12C, 0.5% DMSO, 24 hours
Description: Reagents. SW1573 (CRL-2170) and MiaPaCa-2 (CRL-1420) cells were purchased from ATCC. Both cell lines are […] for the G12C mutation in KRAS. […] Either SW1573 HiBit-KRas^G12C or MiaPaCa-2 HiBit-KRas^G12C cells were plated at 9000 cells/well in a 384 well plate (Corning #3770). […] Plates were then allowed to equilibrate to room temperature and fluorescence was measured using a Perkin-Elmer EnVision. […]
# maps each entry to its DC50

The following molecules have reported results that may help.
molecule	test result
C=CC(=O)N1CCN(c2nc(OCCN3CCC(COc4cc([C@@H](C(=O)N5C[C@H](O)C[C@H]5C(=O)N[C@@H](C)c5ccc(-c6scnc6C)cc5)C(C)C)on4)CC3)nc3c(F)c(-c4cc(O)cc5ccccc45)c(Cl)cc23)C[C@@H]1CC#N (atropisomer, axis not shown) [Compound 154]	> 1000 nM
C=CC(=O)N1CCN(c2nc(OCCN3CCC(COc4cc([C@H](C(=O)N5C[C@@H](O)C[C@H]5C(=O)N[C@@H](C)c5ccc(-c6scnc6C)cc5)C(C)C)on4)CC3)nc3c(F)c(-c4cc(O)cc5ccccc45)c(Cl)cc23)C[C@@H]1CC#N (atropisomer, axis not shown) [Compound 106]	> 1000 nM
C=CC(=O)N1CCN(c2nc(OCCN3CCC4(CC3)CN(CC(=O)N[C@H](C(=O)N3C[C@H](O)C[C@H]3C(=O)N[C@@H](C)c3ccc(-c5scnc5C)cc3)C(C)(C)C)C4)nc3c(F)c(-c4cc(O)cc5ccccc45)c(Cl)cc23)C[C@@H]1CC#N [Compound 145]	100 to 1000 nM

Now look at this entry.
The reported value for C=CC(=O)N1CCN(c2nc(OCCN3CCC(COCC(=O)N[C@H](C(=O)N4C[C@H](O)C[C@H]4C(=O)N[C@@H](C)c4ccc(-c5scnc5C)cc4)C(C)(C)C)CC3)nc3c(F)c(-c4cc(O)cc5ccccc45)c(Cl)cc23)[C@@H](C)C1 [Compound 119] in terms of DC50 is 100 to 1000 nM
